Assay: NCI Yeast Anticancer Drug Screen. Data for the rad50 strain (AID 155);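 further: 0% = growth of vehicle-only cultures of the same strain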
Settings: S. cerevisiae rad50 strain growth inhibition; at 50.0 µM; active compounds read high
Description: Growth inhibition of yeast strains with defined genetic alterations is measured as a screen for potential anti-cancer activity. Selected strains with alterations in DNA damage repair or cell cycle control were exposed to compounds and growth inhibition was measured relative to vehicle treated controls. The strain used in this assay is rad50
This is part of a sample that, as a whole, favours compounds with a hit. Of some 79,000 tested, about 15% had one in any assay.
Measured growth inhibition, listed per entry for reference.
Report the value in % with no unit label.

Here is how some molecules turned out for growth inhibition.
NC(=O)C1C(=O)c2cccc3c2C1CCCC3 (centres undefined)    -11
C=CCC(OC(C)=O)c1cccc(OC)c1OC (centres undefined)    3.7
COc1ccc2[nH]cc(C(=O)C(=O)NC34CC5CC(CC(C5)C3)C4)c2c1    12.7

Here's the next entry for you.
stdin: // growth inhibition lookup, key: O=[N+]([O-])c1ccc(C2ON2C2CCCCC2)cc1 (centres undefined)
stdout: -0.75
